assay: Toxicity in ip dosed BDF1 mouse assessed as animal killed administered as single dose; conditions: in vivo
MEASURED ATTRIBUTE: LD50 (µmol/kg)
Give bare numbers, in µmol/kg.

O=C(CF)N[C@@H]1[C@@H](O)[C@H](O)[C@@H](CO)O[C@H]1O = 180

Please give LD50 for each item listed below.
1. O=C(CF)N[C@@H]1[C@@H](O)[C@@H](O)[C@@H](CO)O[C@H]1O
2. O=C(CCl)N[C@@H]1[C@@H](O)[C@@H](O)[C@@H](CO)O[C@H]1O
3. CC(=O)OC[C@H]1O[C@@H](OC(C)=O)[C@H](NC(=O)CCl)[C@@H](OC(C)=O)[C@@H]1OC(C)=O
4. O=C(O)CF [FLUOROACETATE]
5. O=C(CCl)N[C@@H]1[C@@H](O)[C@H](O)[C@@H](CO)O[C@H]1O
6. CC(=O)OC[C@H]1O[C@@H](OC(C)=O)[C@H](NC(=O)CF)[C@@H](OC(C)=O)[C@H]1OC(C)=O

740
1500
940
100
2000
980

So what does the record say about LD50 for `CC(=O)OC[C@H]1O[C@@H](OC(C)=O)[C@H](NC(=O)CF)[C@@H](OC(C)=O)[C@@H]1OC(C)=O` ?
170

----------
test: Toxicity in ip dosed BDF1 mouse assessed as animal killed administered as single dose; conditions: in vivo
MEASURED ATTRIBUTE: LD50 (µmol/kg)
One number for each entry, in µmol/kg.

CC(=O)OC[C@H]1O[C@@H](OC(C)=O)[C@H](NC(=O)CCl)[C@@H](OC(C)=O)[C@H]1OC(C)=O = 670

Hi, could you look up LD50 for each item in my list?
1. CC(=O)OC[C@H]1O[C@@H](OC(C)=O)[C@H](NC(=O)CBr)[C@@H](OC(C)=O)[C@@H]1OC(C)=O
2. O=C(CBr)N[C@@H]1[C@@H](O)[C@@H](O)[C@@H](CO)O[C@H]1O
3. CC(=O)OC[C@H]1O[C@@H](OC(C)=O)[C@H](NC(=O)CBr)[C@@H](OC(C)=O)[C@H]1OC(C)=O

1: 210; 2: 1700; 3: 220

src = ChEMBL document CHEMBL3244342
